The reported numbers originate from the supplement of paper PMC6897291.

# System: U-2932
# assay_notes: growth inhibition by drug plus 177Lu-lilotomab satetraxetan (1 - RLU/untreated control) (fraction); higher = stronger inhibition
# experimental_setup: 10 nM; time (day): 3; 177Lu-lilotomab satetraxetan 1 ug/ml
Criterion: growth inhibition by drug plus 177Lu-lilotomab satetraxetan meeting or surpassing 0.03. Met: Criterion met. Not met: Criterion not met.

## Input In plain terms: is recorded growth inhibition by drug plus 177Lu-lilotomab satetraxetan at least 0.03 for `Oc1cccc(-c2nc(N3CCOCC3)c3oc4ncccc4c3n2)c1` ?
## Output Criterion met

## Input In plain terms: is recorded growth inhibition by drug plus 177Lu-lilotomab satetraxetan at least 0.03 for Cn1nnc2c(C(N)=O)ncn2c1=O [Temozolomide] ?
## Output Criterion not met

## Input In plain terms: is recorded growth inhibition by drug plus 177Lu-lilotomab satetraxetan at least 0.03 for `O=C1c2ccccc2C(=O)c2c(NCCc3ccc(O)cc3)ccc(NCCc3ccc(O)cc3)c21` ?
## Output Criterion not met

## Input In plain terms: is recorded growth inhibition by drug plus 177Lu-lilotomab satetraxetan at least 0.03 for CC(C)C(=O)Nc1ccc([N+](=O)[O-])c(C(F)(F)F)c1 [Flutamide (Eulexin)] ?
## Output Criterion met

## Input In plain terms: is recorded growth inhibition by drug plus 177Lu-lilotomab satetraxetan at least 0.03 for COc1c(C)c2c(c(O)c1C/C=C(\C)CCC(=O)O)C(=O)OC2 [Mycophenolic (Mycophenolate)] ?
## Output Criterion met

## Input In plain terms: is recorded growth inhibition by drug plus 177Lu-lilotomab satetraxetan at least 0.03 for CCC(C)n1ncn(-c2ccc(N3CCN(c4ccc(OCC5COC(Cn6cncn6)(c6ccc(Cl)cc6Cl)O5)cc4)CC3)cc2)c1=O (stereo not given) [Itraconazole (Sporanox)] ?
## Output Criterion not met

## Input In plain terms: is recorded growth inhibition by drug plus 177Lu-lilotomab satetraxetan at least 0.03 for O=c1c(O)c(-c2ccc(O)c(O)c2)oc2cc(O)cc(O)c12 [Quercetin (Sophoretin)] ?
## Output Criterion met

## Input In plain terms: is recorded growth inhibition by drug plus 177Lu-lilotomab satetraxetan at least 0.03 for CC(C)(C)c1[nH]cnc1/C=c1\[nH]c(=O)/c(=C/c2ccccc2)[nH]c1=O [NPI-2358 (Plinabulin)] ?
## Output Criterion met

## Input In plain terms: is recorded growth inhibition by drug plus 177Lu-lilotomab satetraxetan at least 0.03 for `COc1ccc(CNC(=O)Nc2ncc([N+](=O)[O-])s2)cc1` ?
## Output Criterion not met

* * *

# Test system: RIVA
# assay_notes: growth inhibition by drug plus 177Lu-lilotomab satetraxetan (1 - RLU/untreated control) (fraction); higher = stronger inhibition
# experimental_setup: 10 nM; time (day): 4; 177Lu-lilotomab satetraxetan 0.5 ug/ml
Kindly state growth inhibition by drug plus 177Lu-lilotomab satetraxetan for each of the entries shown.
Keep it simple and answer with nothing but the number.

## Input Please indicate recorded growth inhibition by drug plus 177Lu-lilotomab satetraxetan of CCOc1cc2ncc(C#N)c(Nc3ccc(OCc4ccccn4)c(Cl)c3)c2cc1NC(=O)/C=C/CN(C)C [Neratinib (HKI-272)] measured with RIVA.
## Output 0.498

## Input Please indicate recorded growth inhibition by drug plus 177Lu-lilotomab satetraxetan of `O=c1cc(-c2cccc3c2Sc2ccccc2S3)oc(N2CCOCC2)c1` measured with RIVA.
## Output 0.504

## Input Please indicate recorded growth inhibition by drug plus 177Lu-lilotomab satetraxetan of CC[C@]1(O)C[C@@H]2CN(CCc3c([nH]c4ccccc34)[C@@](C(=O)OC)(c3cc4c(cc3OC)N(C)[C@H]3[C@@](O)(C(=O)OC)[C@H](OC(C)=O)[C@]5(CC)C=CCN6CC[C@]43[C@@H]65)C2)C1 [Vinblastine] measured with RIVA.
## Output 0.503

## Input Please indicate recorded growth inhibition by drug plus 177Lu-lilotomab satetraxetan of `CC(=O)Nc1nc(C)c(-c2ccc(Cl)c(S(=O)(=O)NCCO)c2)s1` measured with RIVA.
## Output 0.493

* * *

Kindly state growth inhibition by drug alone for each of the entries shown.
# Test system: RIVA
# assay_notes: growth inhibition by drug alone (1 - RLU/untreated control) (fraction); higher = stronger inhibition
# experimental_setup: 10 nM; time (day): 6; 177Lu-lilotomab satetraxetan 0 ug/ml

## Input Please indicate recorded growth inhibition by drug alone of `Cc1ccc(C(=O)N(CCCN)[C@@H](c2nc3cc(Cl)ccc3c(=O)n2Cc2ccccc2)C(C)C)cc1` measured with RIVA.
## Output -0.26

## Input Please indicate recorded growth inhibition by drug alone of Cn1cnc2c(F)c(Nc3ccc(Br)cc3Cl)c(C(=O)NOCCO)cc21 [AZD6244 (Selumetinib)] measured with RIVA.
## Output -0.558

## Input Please indicate recorded growth inhibition by drug alone of `CC(C)n1nc(-c2ccc3oc(N)nc3c2)c2c(N)ncnc21` measured with RIVA.
## Output -0.0267

## Input Please indicate recorded growth inhibition by drug alone of `COc1ccc(CCN(C)CCCOc2ccc(S(=O)(=O)c3c(C(C)C)n(C)c4ccccc34)cc2)cc1OC` measured with RIVA.
## Output -0.342

## Input Please indicate recorded growth inhibition by drug alone of `COc1ccc(-c2oc3cc(OC)ccc3c2C(=O)c2ccc(C#N)cc2)cc1` measured with RIVA.
## Output -0.374

## Input Please indicate recorded growth inhibition by drug alone of C=C1/C(=C\C=C2/CCC[C@]3(C)[C@@H]([C@H](C)/C=C/[C@H](C)C(C)C)CC[C@@H]23)C[C@@H](O)C[C@@H]1O [Doxercalciferol (Hectorol)] measured with RIVA.
## Output 0.0541

## Input Please indicate recorded growth inhibition by drug alone of CC(C)n1c(/C=C/C(O)CC(O)CC(=O)O)c(-c2ccc(F)cc2)c2ccccc21 (stereo not given) [Fluvastatin sodium (Lescol)] measured with RIVA.
## Output -0.293

## Input Please indicate recorded growth inhibition by drug alone of `COc1ccc(CCN2CCN(CCCc3ccccc3)CC2)cc1OC` measured with RIVA.
## Output -0.55

## Input Please indicate recorded growth inhibition by drug alone of `FC(F)c1nc2ccccc2n1-c1nc(N2CCOCC2)nc(N2CCOCC2)n1` measured with RIVA.
## Output 0.106

## Input Please indicate recorded growth inhibition by drug alone of CNC(=O)c1cc(COc2nnc(Nc3ccc(Cl)cc3)c3ccoc23)ccn1 [Telatinib (BAY 57-9352)] measured with RIVA.
## Output -0.281

* * *

# Test system: RIVA
# assay_notes: growth inhibition by drug alone (1 - RLU/untreated control) (fraction); higher = stronger inhibition
# experimental_setup: 100 nM; time (day): 4; 177Lu-lilotomab satetraxetan 0 ug/ml
Kindly state growth inhibition by drug alone for each of the entries shown.
Keep it simple and answer with nothing but the number.

## Input Give a short answer stating reported growth inhibition by drug alone for Nc1ncn([C@@H]2O[C@H](CO)[C@@H](O)[C@H]2O)c(=O)n1 [Azacitidine (Vidaza)] .
## Output -0.332

## Input Give a short answer stating reported growth inhibition by drug alone for Nc1ccc(-c2ccc3ncc4ccc(=O)n(-c5cccc(C(F)(F)F)c5)c4c3c2)cn1 [Torin 2] .
## Output 0.804

## Input Give a short answer stating reported growth inhibition by drug alone for O=C(/C=C/c1cccc(S(=O)(=O)Nc2ccccc2)c1)NO [Belinostat (PXD101)] .
## Output 0.83

* * *

Kindly state growth inhibition by drug plus 177Lu-lilotomab satetraxetan for each of the entries shown.
# Tested on: RIVA
# assay_notes: growth inhibition by drug plus 177Lu-lilotomab satetraxetan (1 - RLU/untreated control) (fraction); higher = stronger inhibition
# experimental_setup: 100 nM; time (day): 3; 177Lu-lilotomab satetraxetan 0.5 ug/ml
Keep it simple and answer with nothing but the number.

## Input Give a short answer stating reported growth inhibition by drug plus 177Lu-lilotomab satetraxetan for O=C1[C@H](CC[C@H](O)c2ccc(F)cc2)[C@@H](c2ccc(O)cc2)N1c1ccc(F)cc1 [Ezetimibe (Zetia)] .
## Output 0.406

## Input Give a short answer stating reported growth inhibition by drug plus 177Lu-lilotomab satetraxetan for COc1nc(C)cnc1NS(=O)(=O)c1cccnc1-c1ccc(-c2nnco2)cc1 [Zibotentan (ZD4054)] .
## Output 0.388

## Input Give a short answer stating reported growth inhibition by drug plus 177Lu-lilotomab satetraxetan for `CC(=O)c1c(C)c2cnc(Nc3ccc(N4CCNCC4)cn3)nc2n(C2CCCC2)c1=O` .
## Output 0.281

## Input Give a short answer stating reported growth inhibition by drug plus 177Lu-lilotomab satetraxetan for `CCOC(=O)[C@@H](C)Oc1cccc2c(=O)n(CC(=O)Nc3ccc4c(c3)OCCO4)ccc12` .
## Output 0.305

## Input Give a short answer stating reported growth inhibition by drug plus 177Lu-lilotomab satetraxetan for Cc1nnc(C(C)C)n1C1C[C@H]2CC[C@@H](C1)N2CC[C@H](NC(=O)C1CCC(F)(F)CC1)c1ccccc1 (stereo in doubt) .
## Output 0.545

## Input Give a short answer stating reported growth inhibition by drug plus 177Lu-lilotomab satetraxetan for COc1c(C)c2c(c(O)c1C/C=C(\C)CCC(=O)O)C(=O)OC2 [Mycophenolic (Mycophenolate)] .
## Output 0.712

## Input Give a short answer stating reported growth inhibition by drug plus 177Lu-lilotomab satetraxetan for `O=C1C(Cl)=C(NCCN2CCOCC2)C(=O)c2ncccc21` .
## Output 0.591

## Input Give a short answer stating reported growth inhibition by drug plus 177Lu-lilotomab satetraxetan for `CNC(=O)[C@@H](NC(=O)[C@H](CC(C)C)[C@H](O)C(=O)NO)C(C)(C)C` .
## Output 0.34
